# Assay target: EPAC2 (amino acids 280–993) (Mus musculus)
# Sequence (Q9EQZ6 298-1011): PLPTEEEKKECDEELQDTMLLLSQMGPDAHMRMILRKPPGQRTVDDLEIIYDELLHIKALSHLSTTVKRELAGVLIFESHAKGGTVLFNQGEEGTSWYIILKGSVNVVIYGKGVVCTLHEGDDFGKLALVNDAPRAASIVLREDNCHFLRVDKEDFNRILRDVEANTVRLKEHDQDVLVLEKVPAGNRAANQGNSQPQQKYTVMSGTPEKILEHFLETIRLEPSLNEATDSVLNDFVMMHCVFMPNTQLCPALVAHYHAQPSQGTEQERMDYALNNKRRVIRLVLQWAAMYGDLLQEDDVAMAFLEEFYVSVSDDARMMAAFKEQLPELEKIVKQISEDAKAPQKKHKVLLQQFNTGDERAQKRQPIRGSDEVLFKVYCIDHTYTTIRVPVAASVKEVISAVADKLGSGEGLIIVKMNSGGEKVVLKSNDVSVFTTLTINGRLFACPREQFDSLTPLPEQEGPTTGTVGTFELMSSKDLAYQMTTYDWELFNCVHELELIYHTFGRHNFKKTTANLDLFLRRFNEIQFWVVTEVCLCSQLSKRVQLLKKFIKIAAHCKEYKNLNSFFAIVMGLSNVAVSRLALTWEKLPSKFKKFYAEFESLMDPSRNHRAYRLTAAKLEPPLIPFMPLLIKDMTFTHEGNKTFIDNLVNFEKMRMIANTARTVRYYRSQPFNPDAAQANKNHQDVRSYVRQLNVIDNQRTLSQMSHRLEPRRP
Measured metric: Kd

molecule="Cc1ccc(S(=O)(=O)NC(=O)COc2ccc3ccccc3c2)c(C)c1 [I942]" measured_metric=Kd value_observed="~5 µM"

* * *

Recorded IC50 by entry
# Assay target: EPAC1-CNB (Homo sapiens)
# Construct: EPAC1-CNB (amino acids 169–318 of EPAC1); made in house; host or cells: BL-21 Escherichia coli (pGEX-6P-1)
# Sequence (O95398 169-318 isoform O95398-3): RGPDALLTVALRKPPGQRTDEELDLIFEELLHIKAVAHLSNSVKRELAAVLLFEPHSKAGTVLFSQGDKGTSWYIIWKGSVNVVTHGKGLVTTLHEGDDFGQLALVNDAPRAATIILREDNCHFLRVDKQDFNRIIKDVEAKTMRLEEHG
# Protocol: 8-NBD-cAMP competition assay with EPAC1-CNB
# Type: binding
# Test context: 7-point dose response, 75 µM top concentration, 0.75% DMSO; read-out: IC50, 8-NBD-cAMP binding assay
Measured metric: IC50

compound="CC(=O)Nc1cccc(OCC(=O)NS(=O)(=O)c2ccc(C)cc2)c1 [I516]" value_observed="> 75 µM"
compound="O=C(COc1ccc2ccccc2c1)NS(=O)(=O)c1ccccc1 [I178]" value_observed="~40 µM"
